All figures here come from PubChem BioAssay.

assay: inhibition of PAO1 biofilm formation – strain PAO1, LB-PBS medium, absorbance 600 nm, primary screen (AID 1176); further: test concentration not given here; conditions: P. aeruginosa PAO1 growth/biofilm, A600, 12 h; higher = more signal
Threshold check on z-score: at or above 0.6 gives criterion met, strictly below gives criterion not met.

Molecule	Class name
COCCOC(=O)N1C(=O)[C@@]2(c3cc(C#CC4(O)CCCCCC4)ccc31)[C@H](C(=O)N1CCc3cc(OC)c(OC)cc3C1)[C@H]1C(=O)O[C@H](c3ccccc3)[C@H](c3ccccc3)N1[C@@H]2c1ccc(OCCO)cc1	criterion met

Kindly review the next molecule as well.
Entry CC(C)(C)OC(=O)CC[C@@]1(C(=O)NCC(O)CO)N=C(c2ccc(OCCCO)cc2)O[C@@H]1c1ccccc1CN=[N+]=[N-] (some centres not stated) : is its z-score no less than 0.6?
criterion met
